system: Vero E6; assay: cell viability relative to DMSO; higher = less toxic; settings: 72 h; 100 nM
attributeMeasured: cell viability (%)
API: value field is a number in %; no unit string.

>>> measurednumber("OCc1cccnc1 [nicotinyl-alcohol-tartrate]")
87.8

Identify measured cell viability associated with CC1=C(C(=O)Nc2cc3cn[nH]c3cc2F)C(c2ccc(C(F)(F)F)cc2)CC(=O)N1 (stereo not drawn)
101

Write down cell viability measured for item CC(C)C[C@@H](N)C(=O)N[C@H]1C(=O)N[C@@H](CC(N)=O)C(=O)N[C@H]2C(=O)N[C@H]3C(=O)N[C@H](C(=O)N[C@H](C(=O)O)c4cc(O)cc(O)c4-c4cc3ccc4O)[C@H](O)c3ccc(c(Cl)c3)Oc3cc2cc(c3O[C@@H]2O[C@H](CO)[C@@H](O)[C@H](O)[C@H]2O[C@H]2C[C@](C)(N)[C@H](O)[C@H](C)O2)Oc2ccc(cc2Cl)[C@H]1O
102

###

In this section, each of the compounds is paired with its reported cell viability.
test system: Caco-2; experiment: cell viability relative to DMSO; higher = less toxic; details: 72 h; 1000 nM
The reply should be a number in %, with the unit left off.

See these solved cases before continuing.
>>> measurednumber("O=C(N[C@H]1CCN(C(=O)c2cc(C(F)(F)F)cc(C(F)(F)F)c2)[C@H](Cc2ccc(Cl)cc2)C1)c1ccnc2ccccc12")
97.4
>>> measurednumber("O[C@@H](COc1cccc2ncccc12)CN1CCN([C@@H]2c3ccccc3[C@@H]3[C@H](c4ccccc42)C3(F)F)CC1")
90.2
>>> measurednumber("Cc1noc(NS(=O)(=O)c2cccc3c(N(C)C)cccc23)c1C")
91.7

Here is the next item to consider.
Using the record for NCCC[C@H](N)C(=O)O , state its measured cell viability.
101

###

system: U2OS; assay: cell viability relative to DMSO; higher = less toxic; details: 72 h; 1000 nM
Catalogue of cell viability readings, one per entry.
Entry rule: numbers only, all in %.

Worked examples, 5 compounds total:
>>> measurednumber("CCN(CC)Cc1cc(Nc2ccnc3cc(Cl)ccc23)ccc1O")
98.1
>>> measurednumber("Cc1cn([C@H]2O[C@@H](CO)[C@H](O)[C@H]2F)c(=O)[nH]c1=O")
98.2
>>> measurednumber("Nc1nc(N)c(N=O)c(OCC2CCCCC2)n1")
101
>>> measurednumber("CC(C)c1cc2c(cc1S(=O)(=O)O)[C@@]1(C)CCC[C@@](C)(C(=O)O)[C@@H]1CC2")
95
>>> measurednumber("COc1cccc(CCc2ccccc2OCC[C@@H]2C[C@@H](O)CN2C)c1")
98.3

Assign cell viability to the following record: Clc1ccc(N/N=C(\c2ccccc2)c2ccccn2)nc1
34.3

Supply measured cell viability of O=C(C1CCCCC1)N1CC(=O)N2CCc3ccccc3C2C1 (stereo not given) in your reply.
101

# return recorded cell viability for entry Cc1ccc(S(=O)(=O)OCC(=O)Nc2ccc(C(=O)O)c(O)c2)cc1
104

Specify measured cell viability for CC(=O)O[C@]1(C(C)=O)CC[C@H]2[C@@H]3C[C@H](C)C4=CC(=O)C=C[C@]4(C)[C@@]3(F)[C@@H](O)C[C@@]21C [fluorometholone-acetate] .
98.5

Input NCCNCCNCCN , output reported cell viability.
97.5

###

tested on: Caco-2; assay: cell viability relative to DMSO; higher = less toxic; conditions: 72 h; 10 nM
Each item that follows carries a reported cell viability.
Quick note: number first, unit second.

>>> result("CC(=O)CC(c1ccccc1)c1c(O)c2ccccc2oc1=O (stereo not given) [warfarin]")
"108%"
>>> result("Oc1ccc(-c2nc(-c3ccc(F)cc3)c(-c3ccncc3)[nH]2)cc1")
"104%"
>>> result("NC(=O)c1ccccc1O [salicylamide]")
"99%"
>>> result("CCCc1c(OCC(O)COc2ccc3c(=O)cc(C(=O)O)oc3c2CCC)ccc(C(C)=O)c1O (stereo not given)")
"92.4%"
>>> result("Cc1ncc(Cl)cc1NCc1ccc(C(=O)N[C@@H](CC2CCCC2)C(=O)NC2CC2)s1")
"104%"
>>> result("COc1ccc2cc1Oc1ccc(cc1)C[C@H]1c3c(cc4c(c3Oc3cc5c(cc3OC)CCN(C)[C@@H]5C2)OCO4)CCN1C [cepharanthine]")
"102%"
>>> result("COc1ccc2c3c([nH]c2c1)[C@H](CC(C)C)N1C(=O)[C@H](CCC(=O)OC(C)(C)C)NC(=O)[C@@H]1C3 [Ko143]")
"99.6%"
>>> result("Cc1cccc(C#Cc2ccccc2)n1 [MPEP]")
"94.5%"
>>> result("CC(C(=O)O)c1ccc2c(c1)Cc1cccnc1O2 (stereo not given) [pranoprofen]")
"86.7%"

Turning now to a further compound:
Identify measured cell viability corresponding to C[C@@H]1COCCN1c1cc(C2(S(C)(=O)=O)CC2)nc(-c2cccc3[nH]ccc23)n1 [AZ20]
96.3%

###

test system: Calu-3; experiment: cell viability relative to DMSO; higher = less toxic; conditions: 72 h; 10000 nM
Here the recorded cell viability is given for each entry.
Record the value in %, omitting the unit from your answer.

>>> measurednumber("COc1ccc2[nH]c([S+]([O-])Cc3ncc(C)c(OC)c3C)nc2c1 (stereo unspecified)")
98.9

Provide only the value of recorded cell viability for C[C@@H](Oc1ccc(Cl)cc1)c1ccnc2ncnn12
95

Identify cell viability associated with the compound C=CC(C)(C)c1cc(/C=C/C(=O)c2ccc(O)cc2)c(OC)cc1O
91.7

###

Measured cell viability, listed per entry.
system: Vero E6; experiment: cell viability relative to DMSO; higher = less toxic; conditions: 72 h; 100 nM
Answer in %, number only, no unit symbol.

>>> measurednumber("Cc1cc(O)c2c(c1)C(=O)c1cc(O)cc(O)c1C2=O [emodin]")
97.1
>>> measurednumber("Oc1ccc(-c2nc(-c3ccc(F)cc3)c(-c3ccncc3)[nH]2)cc1")
91.1

Give recorded cell viability. CN(C)c1ccc(C(=O)NCCCCCCC(=O)NO)cc1 [M-344]
92.1

Quick one: give measured cell viability for N[C@@H](Cc1c[nH]c2ccccc12)C(=O)O [tryptophan]
94.4

Tell me its cell viability given C[C@@H](O)[C@H]1C(=O)N2C(C(=O)O)=C(SCCNC=N)C[C@H]12 [imipenem] as the entry.
89.2

Read the entry Cc1cc(I)ccc1Nc1c(C(=O)NOCC2CC2)cc(F)c(F)c1F and write its reported cell viability.
90.4

Look up and state reported cell viability for CSc1ccc2c(c1)N(CCC1CCCCN1C)c1ccccc1S2 (stereo not given) [thioridazine]
104

Consider the compound Cc1cccc(-c2[nH]c(C(C)(C)C)nc2-c2ccc3nccnc3c2)n1 . State its measured cell viability.
104

Identify the reported cell viability for the following entry. O=C(C1CCCCC1)N1CC(=O)N2CCc3ccccc3C2C1 (stereo not given) [praziquantel]
106

Given the compound O=C1C(=Cc2cccnc2)C(=O)c2ccccc21 [PRT4165] , write its reported cell viability.
103

###

system: U2OS; test: cell viability relative to DMSO; higher = less toxic; settings: 72 h; 10000 nM
Examples of compounds with documented cell viability follow.
Give just the numeric value; % need not be written.

>>> measurednumber("NCCC[C@H](N)C(=O)O")
104
>>> measurednumber("COc1ncc(-c2ccc3c(Nc4cc(Oc5cc(F)cc(F)c5)cc(C(=O)O)c4)c(S(=O)(=O)NC4CC4)cnc3c2)c(OC)n1")
99.8
>>> measurednumber("CC(=O)OCC1=C(C(=O)O)N2C(=O)[C@@H](N)[C@H]2SC1")
101
>>> measurednumber("CCCCCCCCN=c1ccn(CCCCCCCCCCn2ccc(=NCCCCCCCC)cc2)cc1")
2.7
>>> measurednumber("C=C(C)CN1CC[C@]23c4c5ccc(O)c4O[C@H]2c2[nH]c4ccccc4c2C[C@@]3(O)C1C5 [SDM25N]")
91.8

Tell us which cell viability value is on record for CCN(CC)CCNC(=O)c1cc(Br)c(N)cc1OC [bromopride]
101

Specify reported cell viability for the compound shown: COc1ccc(S(=O)(=O)Nc2nc(-c3cccc([N+](=O)[O-])c3)cs2)cc1OC
106

Look up and state reported cell viability for OCCNC1CCCc2c1[nH]c1ccc(-c3ccccc3)cc21 (centres undefined)
79

###

tested on: Caco-2; assay: cell viability relative to DMSO; higher = less toxic; details: 72 h; 10000 nM
attributeMeasured: cell viability (%)
The reply should be a number in %, with the unit left off.

>>> measurednumber("O=C(O)CCN(O)C(=O)CCCCCCCCC1CC1 [TC-E-5002]")
91.9

Please list cell viability recorded for the compound O=[N+]([O-])c1cc(Cl)ccc1S(=O)(=O)c1ccccc1 [BTB1]
100

Please list cell viability recorded for the compound CC(C)(C#N)c1ccc(N2C(=O)OCc3cnc4ccc(-c5cnc6ccccc6c5)cc4c32)cc1
77.4

Dear colleague, please send me the reported cell viability for CCc1cc(C(N)=S)ccn1 [ethionamide] when you can.
102
